Molecular target: human 5-HT1A receptors (Homo sapiens)
Construct: expressed in transfected cells
Sequence (P08908 1-422): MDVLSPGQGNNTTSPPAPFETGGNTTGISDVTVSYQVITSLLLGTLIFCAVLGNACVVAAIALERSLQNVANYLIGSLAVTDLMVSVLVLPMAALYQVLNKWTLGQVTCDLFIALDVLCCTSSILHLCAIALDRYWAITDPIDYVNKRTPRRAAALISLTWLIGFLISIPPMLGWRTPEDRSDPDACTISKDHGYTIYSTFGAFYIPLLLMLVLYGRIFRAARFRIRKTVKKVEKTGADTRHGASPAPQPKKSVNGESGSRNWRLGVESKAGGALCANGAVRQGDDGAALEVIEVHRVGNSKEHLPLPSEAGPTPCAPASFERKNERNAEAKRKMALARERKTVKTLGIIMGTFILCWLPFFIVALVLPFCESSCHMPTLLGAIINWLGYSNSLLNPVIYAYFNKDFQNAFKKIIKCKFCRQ
Test: [3H] 8-OH-DPAT displacement from 5-HT1A receptor (CHO cells stably transfected)
Format: binding
Conditions: [3H] 8-OH-DPAT displacement, CHO cells with human 5-HT1A; read-out: 5-HT1A Ki
pKi: −log10 of the molar value.

STRUCTURE_NOTATION	TARGET_OF_ASSAY	pKi
C=CCn1cc(C2=CCN(CCc3csc4ccccc34)CC2)c2ccccc21	human 5-HT1A receptors (Homo sapiens)	6.61
